Entries and their pIC50
TEST TARGET: NEP (Rattus norvegicus, UniProt P07861)
Sequence (P07861 1-750): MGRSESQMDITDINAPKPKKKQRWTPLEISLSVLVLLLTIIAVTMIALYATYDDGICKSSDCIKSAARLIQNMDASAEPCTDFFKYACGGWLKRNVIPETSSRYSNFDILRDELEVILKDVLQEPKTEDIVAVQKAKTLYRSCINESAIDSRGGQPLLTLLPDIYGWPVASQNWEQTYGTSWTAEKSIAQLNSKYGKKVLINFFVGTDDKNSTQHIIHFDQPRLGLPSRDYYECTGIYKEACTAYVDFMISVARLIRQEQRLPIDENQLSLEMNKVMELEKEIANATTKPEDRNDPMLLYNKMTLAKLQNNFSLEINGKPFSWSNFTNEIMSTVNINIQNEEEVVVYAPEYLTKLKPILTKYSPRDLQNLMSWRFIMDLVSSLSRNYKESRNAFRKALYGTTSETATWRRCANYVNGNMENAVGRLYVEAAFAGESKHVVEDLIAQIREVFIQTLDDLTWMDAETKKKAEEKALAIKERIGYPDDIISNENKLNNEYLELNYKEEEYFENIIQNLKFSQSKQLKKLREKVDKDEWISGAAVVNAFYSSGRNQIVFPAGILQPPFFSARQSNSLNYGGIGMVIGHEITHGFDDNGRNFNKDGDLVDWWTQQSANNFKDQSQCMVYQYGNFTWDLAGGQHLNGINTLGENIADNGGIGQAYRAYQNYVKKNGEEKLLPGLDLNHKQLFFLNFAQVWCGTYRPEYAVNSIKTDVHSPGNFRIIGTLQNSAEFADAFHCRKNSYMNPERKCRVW
TEST METHOD NOTES: NEP inhibition activity using rat renal cortex (Experiment B-1)
Type: biochemical
Parameters: membrane fraction prepared from rat renal cortex; from tissue; host or cells: rat renal cortex, membrane fraction (method of Booth and Kenny)
ASSAY CONTEXT: rat renal cortex membrane fraction
Experimental: The NEP activity was determined by using a membrane fraction prepared from rat renal cortex in accordance with the method of Booth and Kenay (A Rapid Metod for the Purificaton of Microvilli from Rabbit Kidney., Andrew G. Booth and A. John Kenny, Biochem j., 1974, 142, 575-581.). […]
pIC50: −log10 of the molar value.
MEASUREMENT LABEL: pIC50

1) CCOC(=O)C1CCCC2c3sccc3CC(NC(=O)[C@H](Cc3ccccc3)SC(C)=O)C(=O)N12 (single isomer, unassigned); 7.26
2) O=C(O)C1CCCC2c3sccc3CC(NC(=O)[C@@H](S)Cc3ccccc3)C(=O)N12 (stereo partly drawn); 7.14
3) O=C(N[C@H]1Cc2sccc2[C@H]2CCC[C@@H](C(=O)O)N2C1=O)[C@@H](S)Cc1ccccc1; 8.07
